Assay: Anti cancer activity was determined as lethal dose
Assay type: organism-based
Settings: mouse, in vivo
PROPERTY: LD50 (mg/kg)
Entry rule: numbers only, all in mg/kg.

Some compounds with known LD50 results, for comparison:
- COMPOUND: "COC1=C(C)C(=O)C2=C(C1=O)[C@@H](COC(N)=O)[C@@]1(OC)[C@H]3N[C@H]3CN21"
  OBSERVED_RESULT: 2.1
- COMPOUND: "C=C1C2=C(C(=O)C(C)=C(OC)C2=O)N2C[C@@H]3N[C@@H]3[C@]12OC"
  OBSERVED_RESULT: 13
- COMPOUND: "C=C1C2=C(C(=O)C(C)=C(N)C2=O)N2C[C@H]3[C@H](N3C)[C@]12O (stereo partly drawn)"
  OBSERVED_RESULT: 210

Record C=C1C2=C(C(=O)C(C)=C(N)C2=O)N2C[C@@H]3N[C@@H]3[C@]12OC . Reported LD50: 75

Record C=C1C2=C(C(=O)C(C)=C(N)C2=O)N2C[C@H]3[C@H](N3C)[C@]12OC (stereo partly drawn) . Reported LD50: 130

Record CO[C@@]12[C@H](COC(N)=O)C3=C(C(=O)C(C)=C(N)C3=O)N1C[C@H]1[C@@H]2N1C (stereo partly drawn) . Reported LD50: 57

Record C=C1C2=C(C(=O)C(C)=C(OC)C2=O)N2C[C@H]3[C@H](N3C)[C@]12O (stereo partly drawn) . Reported LD50: 12

Record C=C1C2=C(C(=O)C(C)=C(OC)C2=O)N2C[C@H]3[C@H](N3C)[C@]12OC (stereo partly drawn) . Reported LD50: 22
